Recorded pIC50 by entry
- tested.on: complement C5a receptor 1 (C5aR1) (Homo sapiens, UniProt P21730)
- Construct: β-galactosidase fragment (PathHunter enzyme complementation); host or cells: CHO-K1 (PathHunter CHO-K1 C5aR1 β-arrestin cell line)
- Sequence (P21730 whole entry, the tested form may be a part): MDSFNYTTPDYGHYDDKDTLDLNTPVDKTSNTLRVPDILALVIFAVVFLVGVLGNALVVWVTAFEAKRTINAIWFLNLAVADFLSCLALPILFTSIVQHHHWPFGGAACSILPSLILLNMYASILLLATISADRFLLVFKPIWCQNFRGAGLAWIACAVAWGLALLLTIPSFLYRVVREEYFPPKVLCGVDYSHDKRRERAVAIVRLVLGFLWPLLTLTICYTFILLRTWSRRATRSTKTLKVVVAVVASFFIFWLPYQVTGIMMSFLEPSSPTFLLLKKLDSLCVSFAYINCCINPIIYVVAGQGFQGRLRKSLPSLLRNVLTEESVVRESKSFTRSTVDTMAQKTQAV
- method.description: β-arrestin recruitment via C5aR1 activation in live CHO-K1 cells (PathHunter), antagonist mode
- Format: cell-based
- condition.set: antagonist mode; recombinant hC5a (EC90) as competing natural agonist; live CHO-K1 cells; read-out: [Antagonist] B-arrestin2 recruitment: Average IC50
pIC50: −log10 of the molar value.

structure.smiles | pIC50
COc1ccnc(F)c1[C@H]1CC[C@H](c2cc3ncc(C)nc3n(Cc3ncccc3C(F)(F)F)c2=O)CC1 | > 6.30
Cc1cnc2cc([C@H]3CC[C@H](c4c(C)cccc4F)CC3)c(=O)n(Cc3ncccc3OC3CC3)c2n1 | > 6.30

Turning to the following compound.
In: Dear colleague, I am looking for the recorded pIC50 of the following compound: Cc1cccc(F)c1[C@H]1CC[C@H](c2cc3ncc(CC(F)(F)F)nc3n(Cc3ncccc3C(F)(F)F)c2=O)CC1
Out: > 6.30

###

- tested.on: complement C5a receptor 1 (C5aR1) (Homo sapiens, UniProt P21730)
- Construct: β-galactosidase fragment (PathHunter enzyme complementation); host or cells: CHO-K1 (PathHunter CHO-K1 C5aR1 β-arrestin cell line)
- method.description: β-arrestin recruitment via C5aR1 activation in live CHO-K1 cells (PathHunter), antagonist mode
- Assay type: cell-based
- condition.set: antagonist mode; recombinant hC5a (EC90) as competing natural agonist; live CHO-K1 cells; read-out: [Antagonist] B-arrestin2 recruitment: Average IC50
pIC50: −log10 of the molar value.
Recorded pIC50 by entry

structure.smiles | recorded.value
Cc1ccc2cc([C@H]3CC[C@H](c4c(C)cccc4F)CC3)c(=O)n(Cc3nccnc3C)c2n1 | 5.30 to 6.30

In: Dear colleague, I am looking for the recorded pIC50 of the following compound: Cc1cnc2cc(C3CCN(c4nn(C)c5ccccc45)CC3)c(=O)n(Cc3ncccc3C(F)(F)F)c2n1
Out: 4.00 to 5.30

In: Can you handle Cc1cnc2c(C)c(C3CCN(c4c(C)cccc4F)CC3)c(=O)n(Cc3nccnc3C)c2n1 next?
Out: 5.30 to 6.30

In: Can you handle Cc1cnc2cc(C3CCN(c4c(C)cccc4F)CC3)c(=O)n(Cc3ncccc3OC(F)F)c2n1 next?
Out: > 6.30

###

Recorded pIC50 by entry
- tested.on: complement C5a receptor 1 (C5aR1) (Homo sapiens, UniProt P21730)
- Construct: β-galactosidase fragment (PathHunter enzyme complementation); host or cells: CHO-K1 (PathHunter CHO-K1 C5aR1 β-arrestin cell line)
- method.description: β-arrestin recruitment via C5aR1 activation in live CHO-K1 cells (PathHunter), antagonist mode
- Type: cell-based
- condition.set: antagonist mode; recombinant hC5a (EC90) as competing natural agonist; live CHO-K1 cells; read-out: [Antagonist] B-arrestin2 recruitment: Average IC50
pIC50: −log10 of the molar value.

In: Dear colleague, I am looking for the recorded pIC50 of the following compound: Cc1cnc2cc([C@H]3CC[C@H](c4c(F)cccc4F)CC3)c(=O)n(Cc3ncccc3C(C)(F)F)c2n1
Out: > 6.30

In: Can you handle Cc1ncc(F)cc1N1CCC(c2cc3nccnc3n(Cc3nccnc3C(F)(F)F)c2=O)CC1 next?
Out: < 4.00

In: Can you handle O=c1c(C2CCN(c3ccccc3C(F)(F)F)CC2)cc2nccnc2n1Cc1ccccc1F next?
Out: > 6.30

Reference source for all entries: patent US20260317320A1
